Assay: Plasma concentration of inhibitor after a single subcutaneous injection
Settings: male, Sprague-Dawley, in vivo, sc; rat, s.c. 2.3 mg/kg, 7 h
measurementName: concentration at 7 h

Enquiry: Give its concentration at 7 h value. Item: C[C@]12CC[C@@H]3c4ccc(CCBr)cc4CC[C@H]3[C@@H]1C[C@H](Cc1cccc(C(N)=O)c1)[C@@H]2O
Return: 73.8 ng/mL

---

Experiment: Plasma concentration of inhibitor after a single subcutaneous injection
Details: male, Sprague-Dawley, in vivo, sc; rat, s.c. 2.3 mg/kg, 24 h
Protocol: Six week-old male Sprague-Dawley rats weighing approximately 220 g were obtained from Charles-River, Inc. (St-Constant, Qc., Canada). The animals were housed 3 per cage. […] The plasma was collected and stored at −80° C. until analyzed by liquid chromatography/mass spectrometry/mass spectrometry (LC/MS/MS) analysis. The concentration of the inhibitors (Compounds I and V) was determined by LC/MS/MS analysis using a procedure developed at CHUQ (CHUL)-Research Center (Québec, Qc, Canada). […]
measurementName: concentration at 24 h (ng/mL)
Write the number in ng/mL without appending the unit.

Enquiry: What does the record list as concentration at 24 h for C[C@]12CC[C@@H]3c4ccc(CCBr)cc4CC[C@H]3[C@@H]1C[C@H](Cc1cccc(C(N)=O)c1)[C@@H]2O ?
Return: 11.7

---

Target: 17β-HSD3 (Homo sapiens)
Construct: expressed in transfected cells; host or cells: HEK-293 (homogenate)
Assay: Inhibition of 17β-HSD3 in intact HEK-293 cells
Format: cell-based
Settings: Table 3, footnote b; 1 μM
measurementName: Intact cells (%), tested at 1 μM

CC1CN(CC2(O)CCC3(C)C(CCC4C5CCC(=O)C5(C)CCC43)C2)C(C)CN1Cc1cccnc1 (stereo not drawn) [Compound 11g]    N/A (58)^b %
CC1CN(C[C@@]2(O)CC[C@@]3(C)[C@@H](CC[C@@H]4[C@@H]3CC[C@]3(C)C(=O)CC[C@@H]43)C2)C(C)CN1Cc1cccc(SC(F)(F)F)c1 (stereo partly drawn) [Compound 11d]    N/A (58)^b %

---

Biological target: 17β-HSD3 (Homo sapiens)
Construct: expressed in transfected cells; host or cells: HEK-293 (homogenate)
Assay: Inhibition of 17β-HSD3 in homogenated HEK-293 cells
Assay type: biochemical
Conditions: read-out: Homo (%) (1 μM), Table 2 (17β-HSD3); 1 μM
measurementName: inhibition at 1 µM (%)
Report as a plain number; the unit % is understood.

Previously resolved entries follow.
C[C@]12CC[C@](O)(CN3CCCCC3)C[C@@H]1CC[C@@H]1[C@@H]2CC[C@]2(C)C(=O)CC[C@@H]12    69
C[C@]12CC[C@](O)(CN3CCC(Cc4ccccc4)CC3)C[C@@H]1CC[C@@H]1[C@@H]2CC[C@]2(C)C(=O)CC[C@@H]12    90
C[C@]12CC[C@](O)(CN3CCN(Cc4ccccc4)CC3)C[C@@H]1CC[C@@H]1[C@@H]2CC[C@]2(C)C(=O)CC[C@@H]12    90

Proceeding to the next compound to report its inhibition at 1 µM.
Enquiry: Reported inhibition at 1 µM, compound C[C@]12CC[C@](O)(CN3CCN(c4ccccc4)CC3)C[C@@H]1CC[C@@H]1[C@@H]2CC[C@]2(C)C(=O)CC[C@@H]12 : ____
Return: 89

---

Target: 17β-HSD3 (Homo sapiens)
Construct: expressed in transfected cells; host or cells: HEK-293 (homogenate)
Sequence (P37058 1-310): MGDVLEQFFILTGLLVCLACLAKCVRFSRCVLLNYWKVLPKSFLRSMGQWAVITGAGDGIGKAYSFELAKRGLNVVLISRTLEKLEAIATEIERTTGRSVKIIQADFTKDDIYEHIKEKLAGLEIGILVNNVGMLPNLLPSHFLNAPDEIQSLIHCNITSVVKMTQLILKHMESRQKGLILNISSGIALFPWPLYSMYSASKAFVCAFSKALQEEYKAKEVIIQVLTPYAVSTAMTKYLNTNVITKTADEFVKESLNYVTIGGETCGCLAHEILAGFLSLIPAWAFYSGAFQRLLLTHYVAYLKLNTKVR
Experiment: Inhibition of 17β-HSD3 in homogenated HEK-293 cells
Assay type: biochemical
Conditions: Table 3; 0.1 μM
Classification field: TRUE = Homo (%) (0.1 μM) at or over 80%; FALSE = Homo (%) (0.1 μM) under 80%.

CC1CN(C(=O)c2cccc(C(F)(F)F)c2)C(C)CN1CC1(O)CCC2(C)C(CCC3C4CCC(=O)C4(C)CCC32)C1 (stereo not drawn) [Compound 13c]    TRUE
C[C@]12CC[C@](O)(CN3CCN(Cc4cccc(Cl)c4)CC3)C[C@@H]1CC[C@@H]1[C@@H]2CC[C@]2(C)C(=O)CC[C@@H]12 [Compound 10e]    TRUE
CC1CN(S(=O)(=O)c2ccccc2C(F)(F)F)C(C)CN1CC1(O)CCC2(C)C(CCC3C4CCC(=O)C4(C)CCC32)C1 (stereo not drawn) [Compound 15c]    TRUE

Enquiry: Identify whether the reported Homo (%) (0.1 μM) of the following compound is 80% or greater: CC1CN(C[C@@]2(O)CC[C@@]3(C)[C@@H](CC[C@@H]4[C@@H]3CC[C@]3(C)C(=O)CC[C@@H]43)C2)C(C)CN1Cc1cccc(Cl)c1 (stereo partly drawn) [Compound 11e]
Return: TRUE

Enquiry: // query: CC1CN(C[C@@]2(O)CC[C@@]3(C)[C@@H](CC[C@@H]4[C@@H]3CC[C@]3(C)C(=O)CC[C@@H]43)C2)C(C)CN1Cc1cc(C(F)(F)F)ccc1C(F)(F)F (stereo partly drawn) [Compound 11h]
Return: FALSE

Enquiry: Then this compound: CC1CN(C(=O)c2ccccc2)C(C)CN1C[C@@]1(O)CC[C@@]2(C)[C@@H](CC[C@@H]3[C@@H]2CC[C@]2(C)C(=O)CC[C@@H]32)C1 (stereo partly drawn) [Compound 13a]
Return: TRUE

---

Target: 17β-HSD3 (Homo sapiens)
Construct: expressed in transfected cells; host or cells: HEK-293 (homogenate)
Assay: Inhibition of 17β-HSD3 in homogenated HEK-293 cells
Type: biochemical
Settings: read-out: Homo (%) (0.01 μM), Table 4; 0.01 μM
measurementName: inhibition at 0.01 µM (%)
Give the number; % is assumed, so skip it.

C[C@]12CC[C@@]3(C[C@@H]1CC[C@@H]1[C@@H]2CC[C@]2(C)C(=O)CC[C@@H]12)CN(Cc1ccccc1)C(=O)O3 [Compound 17a]    21
C[C@]12CC[C@@]3(C[C@@H]1CC[C@@H]1[C@@H]2CC[C@]2(C)C(=O)CC[C@@H]12)CN(CCBr)C(=O)O3    17
CCCN(CCC)CCN1C[C@]2(CC[C@@]3(C)[C@@H](CC[C@@H]4[C@@H]3CC[C@]3(C)C(=O)CC[C@@H]43)C2)OC1=O [Compound 23f]    0
CCN(CCN1C[C@]2(CC[C@@]3(C)[C@@H](CC[C@@H]4[C@@H]3CC[C@]3(C)C(=O)CC[C@@H]43)C2)OC1=O)C1CCCCC1 [Compound 23e]    2
CCCN(CCN1C[C@]2(CC[C@@]3(C)[C@@H](CC[C@@H]4[C@@H]3CC[C@]3(C)C(=O)CC[C@@H]43)C2)OC1=O)C(=O)CC [Compound 23g]    0

Now turn to the next compound.
Enquiry: Form field - read-out: inhibition at 0.01 µM; system: 17β-HSD3 (Homo sapiens); submitted item: C[C@]12CC[C@@]3(C[C@@H]1CC[C@@H]1[C@@H]2CC[C@]2(C)C(=O)CC[C@@H]12)CN(CCO)C(=O)O3
Return: 0

---

Molecular target: 17β-HSD3 (Homo sapiens)
Construct: expressed in transfected cells; host or cells: HEK-293 (homogenate)
Experiment: Inhibition of 17β-HSD3 in homogenated HEK-293 cells
Assay type: biochemical
Settings: read-out: Homo (%) (0.1 μM), Table 4; 0.1 μM
Label scheme for inhibition at 0.1 µM: lower than 70% is No, 70% and above is Yes.

Reference set (4 entries):
CCCN(CCN1C[C@]2(CC[C@@]3(C)[C@@H](CC[C@@H]4[C@@H]3CC[C@]3(C)C(=O)CC[C@@H]43)C2)OC1=O)C(=O)CC [Compound 23g]    No
C[C@]12CC[C@@]3(C[C@@H]1CC[C@@H]1[C@@H]2CC[C@]2(C)C(=O)CC[C@@H]12)CN(CCC(CN1CCOCC1)OC(=O)CCC1CCCC1)C(=O)O3 (stereo partly drawn) [Compound 4, reference compound]    Yes
C[C@]12CC[C@@]3(C[C@@H]1CC[C@@H]1[C@@H]2CC[C@]2(C)C(=O)CC[C@@H]12)CN(Cc1cc(C(F)(F)F)cc(C(F)(F)F)c1)C(=O)O3 [Compound 17h]    No
C[C@]12CC[C@@]3(C[C@@H]1CC[C@@H]1[C@@H]2CC[C@]2(C)C(=O)CC[C@@H]12)CN(Cc1cccc(C(F)(F)F)c1)C(=O)O3 [Compound 17g]    Yes

Enquiry: Record Cc1ccc(CN2C[C@]3(CC[C@@]4(C)[C@@H](CC[C@@H]5[C@@H]4CC[C@]4(C)C(=O)CC[C@@H]54)C3)OC2=O)cc1 [Compound 17b] ; criterion: inhibition at 0.1 µM no lower than 70%. Met?
Return: Yes

Enquiry: Another molecule to look at: Cc1ccc(CN2C[C@]3(CC[C@@]4(C)[C@@H](CC[C@@H]5[C@@H]4CC[C@]4(C)C(=O)C(C)(C)C[C@@H]54)C3)OC2=O)cc1 [Compound 18]
Return: No
